- Protocol Summary: Plasma pharmacokinetics
- Format: in vivo, human
- Condition Details: human, plasma, oral, AUCtau [mean ± standard deviation], 300 mg alpelisib at steady state, triple combination

| Compound Structure | AUC |
| --- | --- |
| Cc1nc(NC(=O)N2CCC[C@H]2C(N)=O)sc1-c1ccnc(C(C)(C)C(F)(F)F)c1 | 25100 ng·h/mL |

----------
- Protocol Summary: Plasma pharmacokinetics
- Format: in vivo, human
- Condition Details: human, plasma, oral, Tmax [median (range)], 200 mg encorafenib at steady state, dual combination

| Molecule | Tmax [h] |
| --- | --- |
| COC(=O)N[C@@H](C)CNc1nccc(-c2cn(C(C)C)nc2-c2cc(Cl)cc(NS(C)(=O)=O)c2F)n1 [encorafenib] | 2 |

----------
- Protocol Summary: Plasma pharmacokinetics
- Type: in vivo, human
- Condition Details: human, plasma, oral, AUCtau [mean ± standard deviation], 200 mg encorafenib in the presence of 300 mg alpelisib, steady state, triple combination
Observable: AUC (ng·h/mL)

| Compound Structure | Measured Number |
| --- | --- |
| COC(=O)N[C@@H](C)CNc1nccc(-c2cn(C(C)C)nc2-c2cc(Cl)cc(NS(C)(=O)=O)c2F)n1 | 12900 |

----------
- Protocol Summary: Plasma pharmacokinetics
- Assay type: in vivo, human
- Condition Details: human, plasma, oral, AUCtau [mean ± standard deviation], 200 mg encorafenib at steady state, dual combination

| Compound | AUC |
| --- | --- |
| COC(=O)N[C@@H](C)CNc1nccc(-c2cn(C(C)C)nc2-c2cc(Cl)cc(NS(C)(=O)=O)c2F)n1 [encorafenib] | 7170 ng·h/mL |

----------
- Protocol Summary: Plasma pharmacokinetics
- Type: in vivo, human
- Condition Details: human, plasma, oral, Cmax [mean ± standard deviation], 200 mg encorafenib in the presence of 300 mg alpelisib, steady state, triple combination

| Compound Structure | Uom | Cmax |
| --- | --- | --- |
| COC(=O)N[C@@H](C)CNc1nccc(-c2cn(C(C)C)nc2-c2cc(Cl)cc(NS(C)(=O)=O)c2F)n1 | ng/mL | 2390 |

----------
- Protocol Summary: Plasma pharmacokinetics
- Format: in vivo, human
- Condition Details: human, plasma, oral, Tmax [median (range)], 200 mg encorafenib in the presence of 300 mg alpelisib, steady state, triple combination

| Compound Structure | Tmax, h |
| --- | --- |
| COC(=O)N[C@@H](C)CNc1nccc(-c2cn(C(C)C)nc2-c2cc(Cl)cc(NS(C)(=O)=O)c2F)n1 | 3 |

----------
- Protocol Summary: Plasma pharmacokinetics
- Assay type: in vivo, human
- Condition Details: human, plasma, oral, Cmax [mean ± standard deviation], 300 mg alpelisib at steady state, triple combination

| Compound | Cmax |
| --- | --- |
| Cc1nc(NC(=O)N2CCC[C@H]2C(N)=O)sc1-c1ccnc(C(C)(C)C(F)(F)F)c1 [alpelisib] | 2740 ng/mL |
